Biological target: UniProtKB Q12809
Sequence (Q12809 whole entry): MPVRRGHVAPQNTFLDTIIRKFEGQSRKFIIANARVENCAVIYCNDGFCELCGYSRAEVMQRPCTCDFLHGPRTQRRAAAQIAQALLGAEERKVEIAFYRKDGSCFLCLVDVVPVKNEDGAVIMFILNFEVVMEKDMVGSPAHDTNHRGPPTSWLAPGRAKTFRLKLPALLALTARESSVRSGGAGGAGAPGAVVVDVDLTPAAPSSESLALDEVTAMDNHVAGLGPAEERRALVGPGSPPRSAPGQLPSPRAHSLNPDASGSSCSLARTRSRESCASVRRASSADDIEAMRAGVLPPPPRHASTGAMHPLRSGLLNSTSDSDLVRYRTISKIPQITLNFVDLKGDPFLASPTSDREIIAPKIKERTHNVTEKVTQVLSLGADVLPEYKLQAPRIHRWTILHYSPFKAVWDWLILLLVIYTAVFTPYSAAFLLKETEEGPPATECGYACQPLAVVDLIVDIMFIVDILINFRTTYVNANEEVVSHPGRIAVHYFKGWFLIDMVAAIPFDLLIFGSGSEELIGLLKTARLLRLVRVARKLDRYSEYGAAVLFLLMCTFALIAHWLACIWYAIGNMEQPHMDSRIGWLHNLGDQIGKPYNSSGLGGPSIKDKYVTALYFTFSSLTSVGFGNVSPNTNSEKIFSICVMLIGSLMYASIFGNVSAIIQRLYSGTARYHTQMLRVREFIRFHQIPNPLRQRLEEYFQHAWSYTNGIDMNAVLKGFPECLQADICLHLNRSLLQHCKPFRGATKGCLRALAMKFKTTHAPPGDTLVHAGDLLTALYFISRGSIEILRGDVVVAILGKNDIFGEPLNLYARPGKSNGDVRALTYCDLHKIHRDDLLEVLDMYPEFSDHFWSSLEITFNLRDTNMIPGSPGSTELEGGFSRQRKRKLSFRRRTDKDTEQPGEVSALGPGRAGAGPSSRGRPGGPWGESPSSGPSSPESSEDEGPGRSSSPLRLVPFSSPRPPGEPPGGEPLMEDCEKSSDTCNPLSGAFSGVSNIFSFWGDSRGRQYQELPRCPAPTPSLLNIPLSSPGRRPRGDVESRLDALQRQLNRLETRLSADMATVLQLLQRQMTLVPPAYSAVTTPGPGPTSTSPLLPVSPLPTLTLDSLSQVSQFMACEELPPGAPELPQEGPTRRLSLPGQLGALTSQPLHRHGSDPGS
Assay: Inhibition of human ERG expressed in HEK293 cells at 3 uM by patch clamp assay
Type: cell-based
Details: HEK293 cells expressing hERG
Recorded inhibition at 3 µM for the following molecules
Please state the figure in %; there is no need to write the unit.

1) N#Cc1c(N2CCC(c3ccccc3)CC2)ccn2c(CC(F)(F)F)nnc12 :: 33
2) Fc1ccc(C2CCN(c3ccn4c(CC5CC5)nnc4c3C(F)(F)F)CC2)c(F)c1 :: 91

For the molecule shown here, FC(F)(F)Cc1nnc2c(Cl)c(N3CCC(c4ccccc4)CC3)ccn12 , give the reported inhibition at 3 µM. 71

Further, for CCCCc1nnc2c(C(F)(F)F)c(N3CCC(c4ccccc4)CC3)ccn12 ? 91

====

Assay: AUC (0 to infinity) in Sprague-Dawley rat at 10 mg/kg, po
Type: ADME, organism-based
Design: time infinity, dose 10 mg/kg, route oral
Conditions: plasma
Endpoint: AUC(0-inf) (ng·h/mL)
Please state the figure in ng·h/mL; there is no need to write the unit.

These solved cases illustrate the format of a correct answer.
1. FC(F)(F)Cc1nnc2c(Cl)c(N3CCC(F)(c4ccccc4)CC3)ccn12 :: 5990
2. FC(F)(F)C1(c2ccccc2)CCN(c2ccn3c(CC4CC4)nnc3c2Cl)CC1 :: 1160
3. CCc1nnc2c(C(F)(F)F)c(N3CCC(c4ccccc4)CC3)ccn12 :: 1010

For the next question, use this molecule.
For the molecule shown here, FC(F)(F)c1c(N2CCC(c3ccccc3)CC2)ccn2c(CC3CC3)nnc12 , give the reported AUC(0-inf). 1800

====

Assay: Clearance in Sprague-Dawley rat at […], iv
Assay type: ADME, organism-based
Parameters: dose 2.5 mg/kg, route intravenous
Conditions: in vivo
Endpoint: clearance (mL/min/kg)
Please state the figure in mL/min/kg; there is no need to write the unit.

For the compound shown here, FC(F)(F)Cc1nnc2c(Cl)c(N3CCC(F)(c4ccccc4)CC3)ccn12 , give the reported clearance. 18

====

Test: Drug metabolism in human liver microsomes at 5 uM after 15 mins
Assay type: ADME, Microsome
Details: read-out: Drug metabolism
# if measured metabolised at […], 5 µM < 20%: criterion met  # else: criterion not met

1. FC(F)(F)Cc1nnc2c(Cl)c(N3CCC(F)(c4ccccc4)CC3)ccn12 :: criterion not met

Lab note: confirm whether the reported metabolised at […], 5 µM for this compound is below 20%, equality not counting. compound: Clc1c(N2CCN(c3ccccc3)CC2)ccn2c(CC3CC3)nnc12 criterion not met

Further, for FC(F)(F)c1c(N2CCC(c3ccccc3)CC2)ccn2c(CC3CC3)nnc12 ? criterion not met

Further, for FC(F)(F)c1c(N2CCc3ccccc3C2)ccn2c(CC3CC3)nnc12 ? criterion not met

Further, for CCCc1nnc2c(C#N)c(N3CCC(c4ccccc4)CC3)ccn12 ? criterion not met

Further, for N#Cc1c(N2CCC(c3ccccc3)CC2)ccn2c(CC(F)(F)F)cnc12 ? criterion not met

Further, for COCc1nnc2c(C#N)c(N3CCC(c4ccccc4)CC3)ccn12 ? criterion met

Further, for FC(F)(F)c1c(N2CCC(F)(c3ccccc3)CC2)ccn2c(CC3CC3)nnc12 ? criterion met

Further, for FC(F)(F)c1c(N2Cc3ccccc3C2)ccn2c(CC3CC3)nnc12 ? criterion not met

Further, for N#Cc1c(N2CCC(c3ccccc3)CC2)ccn2c(CN3CCCC3)nnc12 ? criterion not met

Further, for CCc1cnc2c(C#N)c(N3CCC(c4ccccc4)CC3)ccn12 ? criterion not met

Further, for CCCc1cnc2c(C#N)c(N3CCC(c4ccccc4)CC3)ccn12 ? criterion not met

Further, for FC(F)(F)C1(c2ccccc2)CCN(c2ccn3c(CC4CC4)nnc3c2Cl)CC1 ? criterion not met

Further, for N#Cc1c(N2CCC(c3ccccc3)CC2)ccn2c(CC3CC3)nnc12 ? criterion met

====

Assay: Protein binding in human plasma
Format: ADME, cell-free
Details: read-out: PPB (converted)
Endpoint: fraction unbound

For the molecule shown here, FC(F)(F)c1c(N2CCC(c3ccccc3)CC2)ccn2c(CC3CC3)nnc12 , give the reported fraction unbound. 0.0018

====

Recorded Vd for the following compounds
Assay: Volume of distribution at steady state in Sprague-Dawley rat at […], iv or 10 mg/kg, po
Format: ADME, organism-based
Conditions: in vivo, read-out: Vdss
Please state the figure in L/kg; there is no need to write the unit.

These solved cases illustrate the format of a correct answer.
1. FC(F)(F)c1c(N2CCC(c3ccccc3)CC2)ccn2c(CC3CC3)nnc12 :: 1.4
2. FC(F)(F)Cc1nnc2c(Cl)c(N3CCC(F)(c4ccccc4)CC3)ccn12 :: 1.9
3. FC(F)(F)C1(c2ccccc2)CCN(c2ccn3c(CC4CC4)nnc3c2Cl)CC1 :: 5.1

For the next question, use this compound.
For the compound shown here, CCc1nnc2c(C(F)(F)F)c(N3CCC(c4ccccc4)CC3)ccn12 , give the reported Vd. 1.4

====

Experiment: Volume of distribution at steady state in dog rat at 1 mg/kg, iv or […], po
Type: ADME, organism-based, Canis lupus familiaris
Conditions: in vivo, read-out: Vdss
Endpoint: Vd (L/kg)
Please state the figure in L/kg; there is no need to write the unit.

For the molecule shown here, FC(F)(F)c1c(N2CCC(c3ccccc3)CC2)ccn2c(CC3CC3)nnc12 , give the reported Vd. 1.3

====

Assay: Oral bioavailability in dog rat at […]
Assay type: ADME, organism-based, Canis lupus familiaris
Conditions: in vivo
Endpoint: bioavailability (%)
Please state the figure in %; there is no need to write the unit.

For the compound shown here, FC(F)(F)c1c(N2CCC(c3ccccc3)CC2)ccn2c(CC3CC3)nnc12 , give the reported bioavailability. 18

====

Assay: Dissociation constant, pKa of the compound
Type: physicochemical
Endpoint: pKa
Give a plain numeric answer without units written out.

For the compound shown here, FC(F)(F)c1c(N2CCC(c3ccccc3)CC2)ccn2c(CC3CC3)nnc12 , give the reported pKa. 4.1

====

Experiment: Tmax in Sprague-Dawley rat at […], iv or 10 mg/kg, po
Format: ADME, organism-based
Conditions: in vivo
Endpoint: Tmax (h)
Please state the figure in h; there is no need to write the unit.

1) FC(F)(F)C1(c2ccccc2)CCN(c2ccn3c(CC4CC4)nnc3c2Cl)CC1 :: 1.3
2) CCc1nnc2c(C(F)(F)F)c(N3CCC(c4ccccc4)CC3)ccn12 :: 0.7
3) FC(F)(F)c1c(N2CCC(c3ccccc3)CC2)ccn2c(CC3CC3)nnc12 :: 0.5

For the next question, use this molecule.
For the molecule shown here, FC(F)(F)Cc1nnc2c(Cl)c(N3CCC(F)(c4ccccc4)CC3)ccn12 , give the reported Tmax. 1.7

====

Assay: Cmax in dog rat at 1 mg/kg, iv or […], po
Assay type: ADME, organism-based, Canis lupus familiaris
Conditions: in vivo
Endpoint: Cmax (µg/mL)
Please state the figure in µg/mL; there is no need to write the unit.

For the compound shown here, FC(F)(F)c1c(N2CCC(c3ccccc3)CC2)ccn2c(CC3CC3)nnc12 , give the reported Cmax. 0.218

====

Experiment: Half life in dog rat at 1 mg/kg, iv or […], po
Type: ADME, organism-based, Canis lupus familiaris
Conditions: in vivo
Endpoint: half-life (min)
Please state the figure in min; there is no need to write the unit.

For the compound shown here, FC(F)(F)c1c(N2CCC(c3ccccc3)CC2)ccn2c(CC3CC3)nnc12 , give the reported half-life. 48

====

Target: Metabotropic glutamate receptor 2 (Homo sapiens)
Sequence (Q14416 19-872 limits assumed): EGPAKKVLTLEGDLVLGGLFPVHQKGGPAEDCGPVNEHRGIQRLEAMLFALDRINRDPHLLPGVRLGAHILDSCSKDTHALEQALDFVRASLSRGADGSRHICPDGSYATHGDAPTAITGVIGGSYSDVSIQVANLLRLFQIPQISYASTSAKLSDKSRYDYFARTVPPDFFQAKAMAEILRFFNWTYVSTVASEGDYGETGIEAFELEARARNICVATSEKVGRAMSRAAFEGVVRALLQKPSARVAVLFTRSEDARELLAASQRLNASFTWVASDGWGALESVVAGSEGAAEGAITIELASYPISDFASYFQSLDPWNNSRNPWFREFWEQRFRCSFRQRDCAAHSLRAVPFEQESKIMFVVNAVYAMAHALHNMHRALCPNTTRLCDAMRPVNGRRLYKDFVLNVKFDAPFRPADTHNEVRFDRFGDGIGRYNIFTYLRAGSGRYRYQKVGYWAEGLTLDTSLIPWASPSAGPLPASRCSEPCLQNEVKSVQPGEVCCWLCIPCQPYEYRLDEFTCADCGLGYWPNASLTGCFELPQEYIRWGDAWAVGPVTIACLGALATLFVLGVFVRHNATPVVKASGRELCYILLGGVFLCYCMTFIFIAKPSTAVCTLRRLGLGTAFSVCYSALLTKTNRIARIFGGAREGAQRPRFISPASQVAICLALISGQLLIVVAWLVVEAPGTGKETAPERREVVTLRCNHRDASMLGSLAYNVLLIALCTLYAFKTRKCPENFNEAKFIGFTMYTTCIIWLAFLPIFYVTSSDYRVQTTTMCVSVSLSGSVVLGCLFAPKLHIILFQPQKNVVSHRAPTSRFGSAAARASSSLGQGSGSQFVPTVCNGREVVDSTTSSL
Assay: Positive allosteric modulator activity at human mGlu2R expressed in CHO cells incubated for 30 mins by [35S]GTPgammaS binding assay relative to control
Assay type: functional, cell-based
Recorded Emax for the following molecules
Please state the figure in %; there is no need to write the unit.

These solved cases illustrate the format of a correct answer.
1. COCc1nnc2c(C#N)c(N3CCC(c4ccccc4)CC3)ccn12 :: 196
2. CCc1nnc2c(Cl)c(N3CCC(c4ccccc4)CC3)ccn12 :: 262
3. FC(F)(F)c1c(N2CCC(F)(c3ccccc3)CC2)ccn2c(CC3CC3)nnc12 :: 292
4. FC(F)(F)C1(c2ccccc2)CCN(c2ccn3c(CC4CC4)nnc3c2Cl)CC1 :: 243
5. CCCc1cnc2c(C#N)c(N3CCC(c4ccccc4)CC3)ccn12 :: 254
6. CCc1nnc2c(C#N)c(N3CCC(c4ccccc4)CC3)ccn12 :: 247
7. FC(F)(F)Cc1nnc2c(Cl)c(N3CCC(c4ccccc4)CC3)ccn12 :: 300
8. FC(F)(F)c1c(N2CCC(c3cccnc3)CC2)ccn2c(CC3CC3)nnc12 :: 268

For the molecule shown here, CC(C)(C)c1nnc2c(C#N)c(N3CCC(c4ccccc4)CC3)ccn12 , give the reported Emax. 207

Further, for Clc1c(N2CCC(c3ccccc3)CC2)ccn2c(CC3CC3)nnc12 ? 343

Further, for FC(F)(F)c1c(N2Cc3ccccc3C2)ccn2c(CC3CC3)nnc12 ? 330
